assay: protein stability index of a GFP-peptide fusion (yeast GPS) (PSI 1-4); higher = more stable; sorted into four equal gates, so the index is relative within each strain; conditions: doa10∆
Hi, to clarify the labels: class 1 covers protein stability index from 3 upward, class 0 covers anything below 3.

(Q) Decide: protein stability index of ESGLRPVSLLNSQLVGK [PCI8] >= 3?
(A) class 1

(Q) Decide: protein stability index of IYSSDAQGDPNLEPLIA [NUT1] >= 3?
(A) class 1

(Q) Decide: protein stability index of TLSVSHGINLQNKKNLK [SSN2] >= 3?
(A) class 0

(Q) Decide: protein stability index of DNDFIINDFKKIGRENE [POP5] >= 3?
(A) class 1

(Q) Decide: protein stability index of TEYFENKQSVSNLSPDL [DSN1] >= 3?
(A) class 1

(Q) Decide: protein stability index of KERLTKEAAAIAEGKSK [RPL8B] >= 3?
(A) class 0

(Q) Decide: protein stability index of VDPEQEAHNKALNQFKR [RPT4] >= 3?
(A) class 1

(Q) Decide: protein stability index of GTGKTLLAKAVANQTSA [RPT2] >= 3?
(A) class 0

Next:
(Q) Decide: protein stability index of KKNRDKKIFGTGKRLAK [RPS24A] >= 3?
(A) class 1

(Q) Decide: protein stability index of DSFSGAKIYPGRGTLFV [RPL24A] >= 3?
(A) class 1

###

test: protein stability index of a GFP-peptide fusion (yeast GPS) (PSI 1-4); higher = more stable; sorted into four equal gates, so the index is relative within each strain; settings: san1∆
Hi, to clarify the labels: yes (1) covers protein stability index from 2 upward, no (0) covers anything below 2.

(Q) Decide: protein stability index of KKEKLKQENSTLLKKAN [RPC82] >= 2?
(A) yes (1)

Next:
(Q) Decide: protein stability index of AFFREKGLVSQQLDSFN [RPB2] >= 2?
(A) yes (1)

(Q) Decide: protein stability index of NVNNRFDNFLTEEELQA [BRN1] >= 2?
(A) yes (1)

(Q) Decide: protein stability index of TGWITQSTPVLLNHGER [RPN1] >= 2?
(A) no (0)

(Q) Decide: protein stability index of PGVDVSAEEQLRKIDML [SRB7] >= 2?
(A) yes (1)

(Q) Decide: protein stability index of NLKEYNKFMSIFLKRKD [SRB8] >= 2?
(A) yes (1)

###

experiment: protein stability index of a GFP-peptide fusion (yeast GPS) (PSI 1-4); higher = more stable; sorted into four equal gates, so the index is relative within each strain; details: ubr1∆
observation.type: protein stability index
Give only the figure.

Recorded protein stability index, per entry:
(Q) protein stability index for AFDVDRAKSCGVDAMSV [RPL1A] ?
(A) 2.71

(Q) protein stability index for FLLTQSKVSIEQRKEAA [RPN7] ?
(A) 2.48

(Q) protein stability index for VILFDSDWNPQADLQAM [ISW2] ?
(A) 2.15

Next:
(Q) protein stability index for NAIFLSSEQDYSTLKEL [YCG1] ?
(A) 2.81

(Q) protein stability index for KKMVYVLDSMTKEELES [SRP54] ?
(A) 3.04

(Q) protein stability index for QPGYADLEHKEDCVEEF [QCR6] ?
(A) 2.68

(Q) protein stability index for TQPKAEATQDDDFDMLF [NUT1] ?
(A) 3.14

(Q) protein stability index for EKTFLHLPCTIEAEEAE [RPN8] ?
(A) 2.48

(Q) protein stability index for PSEILHLILDKLNQKYD [GRR1] ?
(A) 2.46

(Q) protein stability index for SVALHRHSNALVDILPP [RPT3] ?
(A) 1.94

(Q) protein stability index for ITTFVKRSTVPLNDGFV [YML103C/NUP188] ?
(A) 2.35

(Q) protein stability index for IILKTRQINKLIDSLPG [SRB7] ?
(A) 2.51

(Q) protein stability index for QTEIKDIILGQNIKAPS [PRP8] ?
(A) 2.78

(Q) protein stability index for TLYSVKSKEDMKQLKFF [SNU114] ?
(A) 3.1

###

test: protein stability index of a GFP-peptide fusion (yeast GPS) (PSI 1-4); higher = more stable; sorted into four equal gates, so the index is relative within each strain; conditions: san1∆
Below is a list of entries, each paired with its recorded protein stability index value.
Give only the figure.

Recorded protein stability index, per entry:
(Q) protein stability index for LNTLNNVVEIWVFSYLR [SIR3] ?
(A) 1.42

(Q) protein stability index for LAAMAVLESHWKQDLTK [PUP1] ?
(A) 2.48

(Q) protein stability index for VASQTVKKVIEINPFLL [PRE2] ?
(A) 2.44

(Q) protein stability index for DQRDELLEQKKSIINSQ [ITC1] ?
(A) 3.11

(Q) protein stability index for FSSSVSLSYMAFPNASK [RRP40] ?
(A) 1.65

(Q) protein stability index for SQSSNANICLTFLESIN [SIN4] ?
(A) 2.55

(Q) protein stability index for LMLEDAVTEREVLVTPG [MCD1] ?
(A) 2.16

Next item in the queue.
(Q) protein stability index for KSLAMEHKSQVVLYNYY [CSN12] ?
(A) 1.32

###

assay: protein stability index of a GFP-peptide fusion (yeast GPS) (PSI 1-4); higher = more stable; sorted into four equal gates, so the index is relative within each strain; conditions: doa10∆
Hi, to clarify the labels: Condition met covers protein stability index from 3 upward, Condition not met covers anything below 3.

(Q) Decide: protein stability index of GTAGGNTFGSSSLFNNS [YJL041W/NSP1] >= 3?
(A) Condition met

Next:
(Q) Decide: protein stability index of SSRFIKGGSLYGLGLIY [RPN2] >= 3?
(A) Condition not met

(Q) Decide: protein stability index of LELQVAKTFIDLESSSP [RPS7B] >= 3?
(A) Condition met

(Q) Decide: protein stability index of ALRRRVGPSEQNFAEED [REC8] >= 3?
(A) Condition met

(Q) Decide: protein stability index of GYGSNKKTKFLSPSGHK [RPL32] >= 3?
(A) Condition not met

###

Below is a list of entries, each paired with its recorded protein stability index value.
experiment: protein stability index of a GFP-peptide fusion (yeast GPS) (PSI 1-4); higher = more stable; sorted into four equal gates, so the index is relative within each strain; conditions: ubr1∆
Give only the figure.

Recorded protein stability index, per entry:
(Q) protein stability index for IIKYPVAFDNINTHIET [SNF2] ?
(A) 1.85

(Q) protein stability index for TKDLLSKSPSEWQDIIH [CSE2] ?
(A) 3.17

(Q) protein stability index for WRILKEDYAIVTKGGTV [PRP28] ?
(A) 3.41

(Q) protein stability index for TNAKIPQFDSTQPKSSS [SSN3] ?
(A) 2.98

(Q) protein stability index for RKDKDAKFRLILIESRI [RPS13] ?
(A) 2.57

Next:
(Q) protein stability index for MKNENANPKKLALMTAH [CDC53] ?
(A) 1.79

(Q) protein stability index for NCNIKDFKPPYIYSHVN [SWP82] ?
(A) 2.91

(Q) protein stability index for STSFSFNAPATGNGTTT [YOR098C/NUP1] ?
(A) 3

(Q) protein stability index for LRDDTLPKAWISLAVEG [COR1] ?
(A) 1.44

(Q) protein stability index for DLLNAASIESADILCPL [IRR1] ?
(A) 2.79

(Q) protein stability index for LMATEYQDIEGGFEDVE [RPB2] ?
(A) 3.44

(Q) protein stability index for ALGQDTEKMEEQLDLLS [MED11] ?
(A) 3.31

(Q) protein stability index for VGRQDPKKHLSETADET [RPN11] ?
(A) 2.92

(Q) protein stability index for GSKQILKTEAANVLDPS [BRR2] ?
(A) 3.19

(Q) protein stability index for ETDGKHGKRRSQVVETH [YMR129W/POM152] ?
(A) 3.11

(Q) protein stability index for YKLGKVKKVQLGKKGVP [RPS4A] ?
(A) 2.94

(Q) protein stability index for KDSNKDVVVEGLRRARY [RPL10] ?
(A) 3.38

(Q) protein stability index for SNIITKSLVQYIELLPN [DIS3] ?
(A) 2.38

(Q) protein stability index for NMLICAPTGSGKTNIAL [BRR2] ?
(A) 2.98

(Q) protein stability index for MSVEPVVVIDGKGHLVG [RPL16A] ?
(A) 3.1

(Q) protein stability index for QIGQVPLAPAPINLPPQ [SNF5] ?
(A) 2.5

(Q) protein stability index for VGFGESNFTSIIGPNGS [SMC1] ?
(A) 3.07

(Q) protein stability index for IDETMMDKPLNFRILKS [SRB5] ?
(A) 2.79

(Q) protein stability index for TEKLKISPESVFGTLGE [SMC3] ?
(A) 1.99

(Q) protein stability index for AMIALSMILIQQTEKLN [RPN2] ?
(A) 1.6

(Q) protein stability index for WESLAKKQNLSSHQRVF [SWP82] ?
(A) 2.91

(Q) protein stability index for SQSSNANICLTFLESIN [SIN4] ?
(A) 2.74

(Q) protein stability index for WSEITESMSYLPDPILK [MCD1] ?
(A) 2.64

(Q) protein stability index for AQDFKTDLRFQSSAIGA [HHT1] ?
(A) 1.3

(Q) protein stability index for NTEQGDSDELGGESMEG [SNM1] ?
(A) 3.39

(Q) protein stability index for LNIKPLLDAGCKVVAEM [SKP1] ?
(A) 2.47
